Entries annotated with measured viability at 24 h, 20 µM
testName: MTT cell viability of LPS-activated BV-2 cells
Assay type: cell-based, murine
conditionSummary: mouse, LPS-activated BV-2 microglial cells; 20 µM compound; percentage of the LPS-only treatment group; mean ± standard deviation, three experiments
measurementLabel: viability at 24 h, 20 µM (%)

# compound, measurementLabel, readingUnit, endpointResult
data = [
    ("C/C(C=NN=C/C(C)=C/c1ccccc1)=C\\c1ccccc1 [Compound 2]", "viability at 24 h, 20 µM", "%", 96.6),
    ("COc1cc(/C=C/C=N/N=C/C=C/c2ccc(O)c(OC)c2)ccc1O [Compound 3]", "viability at 24 h, 20 µM", "%", 101),
    ("C(=NN=Cc1ccc(N(c2ccccc2)c2ccccc2)cc1)c1ccc(N(c2ccccc2)c2ccccc2)cc1 [Compound 9]", "viability at 24 h, 20 µM", "%", 83.5),
    ("COc1ccc(/C=C/C=NN=C/C=C/c2ccc(OC)cc2)cc1 [Compound 1]", "viability at 24 h, 20 µM", "%", 90.3),
    ("O=[N+]([O-])c1ccccc1/C=C/C=NN=C/C=C/c1ccccc1[N+](=O)[O-] [Compound 6]", "viability at 24 h, 20 µM", "%", 87.9),
    ("Clc1ccc(/C=C/C=NN=C/C=C/c2ccc(Cl)cc2)cc1 [Compound 7]", "viability at 24 h, 20 µM", "%", 77.2),
    ("[H]/N=C(/NC)NCCC[C@H](N)C(=O)O [L-NMMA, L-NG-monomethylarginine, reference compound]", "viability at 24 h, 20 µM", "%", 100),
    ("C(C=C(c1ccccc1)c1ccccc1)=NN=CC=C(c1ccccc1)c1ccccc1 [Compound 8, 1,2-Bis(3,3-diphenylallylidene)hydrazine]", "viability at 24 h, 20 µM", "%", 69.5),
    ("C(=NN=Cc1cnc2ccccc2c1)c1cnc2ccccc2c1 [Compound 4, 1,2-Bis(quinolin-3-ylmethylene)hydrazine]", "viability at 24 h, 20 µM", "%", 91),
]
